Assay: PET hydrolysis, aromatic products released after 48 h (umol product/mg enzyme); higher = more PET depolymerization activity
Conditions: substrate: cryPow; 40 °C; pH 6.5
The threshold is inclusive: PET hydrolysis of exactly 20 counts as criterion met; values below receive criterion not met.

query_sequence	label
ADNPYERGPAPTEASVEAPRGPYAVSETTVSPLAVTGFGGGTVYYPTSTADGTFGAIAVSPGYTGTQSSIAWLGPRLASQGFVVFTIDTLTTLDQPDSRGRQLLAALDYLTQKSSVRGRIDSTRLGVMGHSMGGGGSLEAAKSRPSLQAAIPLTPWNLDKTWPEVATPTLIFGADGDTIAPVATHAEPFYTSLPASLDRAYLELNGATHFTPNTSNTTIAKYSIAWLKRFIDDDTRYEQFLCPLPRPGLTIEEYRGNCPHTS [TEP117]	criterion not met
QYQKGPDPTVAGLERDGTFAIRTTTVSRLSASGFGGGTIYYPTATGSYGVVAVSPGFTAYQSSISWIGSRLASHGFVVITIDTNTTSDQPDSRARQLKAALDKVVSLASSRTNVLYGKVDSSRLAVAGHSMGGGGSLAAARDYPSLKASVPLAPWHTTKSFSTVRVPTLIVGADGDTVASVTSHSIPFYTSIPSSTPKGYLELNNEDHFFPQDSGEYGLVGKYMISWFKRFVDSDTRYSPFLCGAPHQTQIANTLRVSDSRTNCPY [DP038]	criterion met
AANPYERGPAPTDAVLEASRGPFATTSYSVSGLSVTGFGGGVVYYPTSTSEGTFGAIAISPGYTATWSSLSWLGPRIASHGFVVIGIETNTLLDQPDSRGRQLLAALDYLVQRSSVRGRIDAGRLAVAGHSMGGGGTLEAAAARPSLQAAVPLAPWNLDKTWSGVTVPTLIVGGESDSVAPVASHSVPFYNSIPASSEKAYLELNGASHFFPQSVNTPTAKQMVAWLKRFVDNDTRYEQFLCPGPSGLAIEEYRNTCPSS [TEP018]	criterion not met
GQAPTTAAQVRASAFAKGPDPTEQTIKAQRGPFQIKQLSVAAQSGRGFNRGTIYYPTDTGQGTYGAIAVIPGFLEPEFITSWYGPTLASYGFVVMTLEPFAITDFPDPRSNQLLAAVDWLAADSPVKAQVDPNRLAVMGHSMGGGGALLAASKRPSLKAAVPLAPWNLYADFAGVTVPTLVIGADNDFIAPVGMHADPMYASIKASPNEGYLKLKNADHFTVNSYSATLTKFTVSWMKRYVDEDTRYTQFLCPAPQPDPSFASFQMTCPS [TEP173]	criterion not met
DTGSHERGPDPTEQALEARSGPFDTDDERVSSLGASGFGGGTIYYPEDTSEGDFGAVALAPGYTASSTSYSSLAERIASHGFVVLAFDTNTRYDQPNSRGRQMESALEYLTEDSDVTDRIDTDRQAVSGHSMGGGGTLAAADDNPDLQAAVPLTPWHTQKSWSGMQVPTMIIGAENDSIASVRSHSIRFYESLPGSLEKGYAEVDGASHFAPNSNDDTVAKYTITWLKRFVDNDTRYEQFLCPPPDSGGWGDDLSDYRDSCPTG [DP052]	criterion not met
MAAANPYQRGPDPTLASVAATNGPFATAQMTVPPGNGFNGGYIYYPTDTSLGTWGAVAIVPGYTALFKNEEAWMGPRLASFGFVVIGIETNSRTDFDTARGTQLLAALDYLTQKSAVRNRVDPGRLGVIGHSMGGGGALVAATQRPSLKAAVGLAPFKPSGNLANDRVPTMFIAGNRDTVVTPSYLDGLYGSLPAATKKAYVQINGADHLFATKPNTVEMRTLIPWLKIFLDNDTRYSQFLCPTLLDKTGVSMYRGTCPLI [TEP109]	criterion met
ADNPYQRGPDPTPQSISATTGPFATASVTVPRQGNFGGGVIYYPTDTSQGTFGAVAISPGLNGTWPGIAWLGPRLSSQGFVVFGIDTLGLNDSTASRGSQLLAALDYLTQTSSVRTRVDASRLAVAGHSMGGGGAFEAVLRRPTLKASIPNAPFFPGSAANVRVPTLITAMQNDSLVGQNRNAYNGIPAGVEKAYIELAGAGHNQIGQPTTAIARNWIPWLKIFVDNDARYHQFFCPTTNMSGLSQYLNTCPLTSATPPTSSPSAGPTTPGPTGPPPGGACAATYQTVNTWSGGYQGEMTVRAGNSAINGWTVRWTMGGGQISQVWNGTLVTGSGAAAVRNAPYNGALAAGATTTFGFISSGTPSATSLTCATP [ESM064]	criterion not met
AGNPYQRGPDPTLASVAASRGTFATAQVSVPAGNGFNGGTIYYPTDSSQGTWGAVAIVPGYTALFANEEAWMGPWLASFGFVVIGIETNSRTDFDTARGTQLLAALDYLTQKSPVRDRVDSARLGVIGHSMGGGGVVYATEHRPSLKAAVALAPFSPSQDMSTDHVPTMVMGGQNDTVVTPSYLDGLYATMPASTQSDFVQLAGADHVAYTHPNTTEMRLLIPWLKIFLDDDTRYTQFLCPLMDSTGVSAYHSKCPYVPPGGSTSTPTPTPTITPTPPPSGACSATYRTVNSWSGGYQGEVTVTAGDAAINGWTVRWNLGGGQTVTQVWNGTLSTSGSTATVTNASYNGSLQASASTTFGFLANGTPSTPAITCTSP [TEP114]	criterion met
DSPYERGPDPTTSSIEASSGPFDVDEDSVSSWSVSGFGGGTVYYPEDDGQTYGGVVIAPGYTESSSAMAWLGEYLASHGFVAFNIDTNTRYDQPDSRGRQIEAALDYLAEDSDVSDLVDPNRLAAMGHSMGGGGTLAAAEDRPELKAAIPLTPWHTDKTWGGVTVPTMIIGAENDTIAPNSSHSIPFYNSLSTSTERAYVELDGEGHLVTSSRNTELASNSVSWLKVFVDEDDRYEQFLCPAPSTGWGSPYSDYRDSCPYI [DP033]	criterion not met
SAQVTRQAAGSYARGPAPTLAGIRAALGPFAYSTVTVTAAQAGGAFGGGTIYYPDDTSQGTFGGVAAVPGYQSAEKAVAWLGPRLASQGFVVITIATNGLTDQPTARGKQLLGALDYLTAQSPAAVRQRLDPNRLAVTGHSMGGGGTLYAAWTRPSLKAAVPLAPWHTIKNWSGITVPTLVQGGTQDTTAQVGTFAEPIYQSLTGARERAYAEIADAAHGTFVRENPLIGALEVAWLKRFVDDDGRYEQFLCPAPADSELTEYRDSCPSS [DP009]	criterion not met

----------
Test: purified protein yield per well (BCA); higher = higher soluble expression
assay_readout: purified protein yield per well

query_sequence	assay_readout	endpoint_value
TQSGPYQVKRYREKDGLRNGPRYRGATVYYPTDARGLLASIVIVPGYISPERSIRAWGPFYASHGIVAMTIGTNRPQDAPAARRRALLDAITSLKLENHRANSPLKGRLAVTRIAVSGWSMGGGGALEAATRAPQLKAVVALCPWNPYQTFSHRVPVLFLAGQRDRLAPVSDNALRHYEKTPASTPKLLFEVRNEGHWVANTPQGGNGAIGRLALS [TEP155]	purified protein yield per well	< 25 µg
VENGPAPTFSSVQAEGPFAVSTQTVRGSGFGGGTVYSPNTAGKYAVVAVCPGFTATQSSIALISRRLATHGFVVVTISTNSVYDYPASRANQLLAALRTVTALTTGPVAGKMDISRQGVAGWSMGGGGAMLAAGMTPGLKAGVAFAPWSLTNNVGSSSVPMAYLAGTADTVAPASSHSTVFYNAMPATTNKLIGVIQGANHYFPGTASQPASYTQVAWMKRFLDGDTRYSQFLNGDSRFATFRSTGPF [ESM102]	purified protein yield per well	< 25 µg
QSNPYQKGPDPTHASIEADGPYAVSTQALKGSGFGSGTVYSPNAAGSYALVAVCPGFVSAQSSIAQISRRLATHGFVVVTIDTNTIFDFPDSRSTQLLAALKAVAALSTGPAAGKIDTARQAVAGWSMGGGGTLLAAGSTPALKGAVAYAPWALNNNLKASKVPAAILGGTADIVAPPGIFADVFYKAIPAGSSKLLGIVKGADHFFSNTASQPASYTTVAWFKRFVDNDTRYGPFLNGDTRYSRFSYTGPF [TEP040]	purified protein yield per well	< 25 µg
GTTASATTVSGTQAAAAQEYRRGPDPTAQSVEAATGPFAIQQTSVPAGNGFGGGTIYYPTDTSQGTFGAIAISPGWTEDQSAIAWLGPKLASNGFVVMTINNNNAFLDFPDARGTQLLAALDSLTGQSPVAGRIDKNRLAVAGHSMGGGGALRAAATRPEIQAAIPLTPWHLNQDWSSVRVPTLIVGGETDIIASVGAHSEPFYESLTNAPERAYLEMEGQGHFVTNSANPTVGRYVLSWLKRYVDNDTRYEQFLCPAPAPSSVISEYRDSCPGS [DP018]	purified protein yield per well	84 µg
AADNPYQRGPDPTPASVSANRGTFATTQVAVAAGNGFGGGVIYYPTDTSQGQFGAIAVVPGYTATWAAEGAWMGHWLASFGFVVIGIDTNNRNDWDTARGTQLLAALDYLTQRSSVRDRVDATRTAVMGHSMGGGGAASASLQRPSLKASIGLAPASFSQNLTTTRVPTMLLSGQNDTTITPASVVNLYNGIPASVEKAYLELSGAGHGFPTSNNSTMMRNVIPWFKVFVDSDTRYTQFLCPLANWSGIRTYQSTCPLVPSTPPTSTTTSTTTSTTTSTTTTTTPQPVGACNATYRTTNSWPGGYQGEVTVTAGESGVNGWTTRWTLGSGQTVTQVWNGTLTVDGSTASVRNAAYNGSLPAGGSAAFGFIGGGTPPTSLTCTSP [ESM023]	purified protein yield per well	221 µg
AADNPYERGPDPTEQSVTAIRGPFNVAQTDVSRLAVTGFGGGTIYYPTDTSQGTFGAIAISPGFTAYWSSLSWLGPRLASQGFVVFGIETNTTLDQPAQRGQQLLAALDYLTQRSSVRSRVDASRLAVAGHSMGGGGTLEAAKSRTSLKAAIPIAPWNLDKTWPEVRTPTLIIGGELDSIAPVATHSKPFYSSLSNAPEKAYLELDNASHFFPQISNTTMAKYMISWMKRFIDNDTRYDQFLCPPPRAIGDISDYQDTCPHS [TEP031]	purified protein yield per well	< 25 µg
STPAHHAAARTAAHHHAPFAVRATVVPKTAVKAFGGGVIYTPQDTGKAVLGAVVITPGFTDTSADEKEMAELVASQGFVAFAIDTLDTGDLPDQRATEILAAADYLTGQSAVRSEVSAKDVGLIGYSFGGGGTMQAAQARPSIKAAIGLMPYDFPPADQPDAQYPAYPKLTTPTLVITGQKDDLAVPAEFGKPAYDSIPAGTPKQYLELKGLGHAAGEHVPVATIRTAVTAFLKRYLDGNSAYAKYICPAPKVGGPISASTSSCPKG [TEP196]	purified protein yield per well	< 25 µg
QSNPYQRGPNPTRAALMTDGPYAVATASVWPYIYGFGGGTIYYPTGTTETFGGIAVSPGFTADSTSLAWFGRRLASHGFVVIVINTNSRFDFPDSRASQLQAAIDYLRTNSPAAVRARLDENRIAVAGHSMGGGASLRASERLPWLKASVPLTPWHTDKTFSTSVPQLIIGAEWDTIAPVSSHAIPFYNNLPSSTPKVYLELNNATHFAPNTTNATISLYAISWMKRWVDNDTRYNQFLCGVNHTADPSISDYRTNAWTYCP [DP073]	purified protein yield per well	< 25 µg
AENPYERGPDPTESSIEASRGSFAVSQTSVSSLAVIGFGGGTIYYPTSTAQGTFGAVAISPGFTATQSSIAWIGPRLASQGFVVFTIDTNTIYDQPDSRGDQLLAALDYLTQRSDVRSRIDTSRLAVAGHSMGGGGSLEAAQDRPSLQAAVPLAPWNTQKSWSSLRVPTFIIGGESDTVAPVASHSIPFYTSIPASAEKAYMELDNASHFFPNTANTTMAKYTISWLKRFVDNDTRYEQFLCPAPDDRTISDYRDTCPHA [TEP129]	purified protein yield per well	< 25 µg
QSNPYARGPDPTTAALEASRGPFAFSSFSVTRPSGYGAGTVYYPTNAGGTVGAIAIVPGFFARQSSINWWGPRLASHGFVVITIDTNSTFDQPASRASQQMAALRQVATLAGTSSSPIYRKVDTARLGVMGWSMGGGGTLLAARDNPSLKAAAPQAPWNSSTTNFSSMTVPTLIIACESDSTAPTRSHAEPFYTSMSRNSKQYLEINNGSHSCANGGSNTGLLGKKGVAWMKRFMDEDRRYTSFACSNPNSSAVSDFRTANCS [ESM149]	purified protein yield per well	< 25 µg
